These measurements were taken from patent US9539260B2.

// pIC50 lookup, one value per entry
# test.system: PI3K alpha (Homo sapiens (Human), UniProt P42336)
# Sequence (P42336 other isoform, or with tags, fused parts or gaps): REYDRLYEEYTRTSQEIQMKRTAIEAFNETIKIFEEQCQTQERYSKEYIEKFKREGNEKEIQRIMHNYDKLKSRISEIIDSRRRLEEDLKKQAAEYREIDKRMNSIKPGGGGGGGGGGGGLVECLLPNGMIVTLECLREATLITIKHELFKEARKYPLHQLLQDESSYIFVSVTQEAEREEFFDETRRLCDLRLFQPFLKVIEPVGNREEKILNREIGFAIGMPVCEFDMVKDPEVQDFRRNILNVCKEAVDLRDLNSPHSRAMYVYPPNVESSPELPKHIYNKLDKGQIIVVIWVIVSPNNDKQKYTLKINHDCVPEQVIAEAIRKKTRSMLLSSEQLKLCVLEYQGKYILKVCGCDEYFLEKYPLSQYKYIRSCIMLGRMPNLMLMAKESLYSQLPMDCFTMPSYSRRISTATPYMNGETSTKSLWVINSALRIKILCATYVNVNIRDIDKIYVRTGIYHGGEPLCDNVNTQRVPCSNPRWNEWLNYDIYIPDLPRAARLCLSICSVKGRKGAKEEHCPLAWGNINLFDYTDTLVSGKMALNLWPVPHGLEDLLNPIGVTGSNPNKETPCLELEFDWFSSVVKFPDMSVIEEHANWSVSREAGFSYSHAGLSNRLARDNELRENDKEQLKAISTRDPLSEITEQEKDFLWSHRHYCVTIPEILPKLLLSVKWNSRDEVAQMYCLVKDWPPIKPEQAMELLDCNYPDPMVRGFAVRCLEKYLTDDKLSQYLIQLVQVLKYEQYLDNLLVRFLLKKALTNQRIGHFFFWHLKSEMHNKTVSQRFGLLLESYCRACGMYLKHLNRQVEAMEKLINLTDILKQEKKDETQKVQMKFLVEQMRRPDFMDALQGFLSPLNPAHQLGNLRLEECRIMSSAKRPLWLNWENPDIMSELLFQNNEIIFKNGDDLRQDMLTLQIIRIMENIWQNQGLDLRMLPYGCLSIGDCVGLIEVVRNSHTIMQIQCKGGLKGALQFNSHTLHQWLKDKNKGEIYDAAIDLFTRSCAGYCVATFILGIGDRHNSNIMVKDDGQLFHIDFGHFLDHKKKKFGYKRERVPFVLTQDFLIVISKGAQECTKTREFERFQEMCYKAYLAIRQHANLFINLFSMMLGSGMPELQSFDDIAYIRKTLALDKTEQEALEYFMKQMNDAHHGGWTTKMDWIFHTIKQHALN
# experiment.notes: Enzymatic PI3K alpha isoform inhibition (lipid kinase activity, Kinase-Glo luminescence)
# particulars: Enzymatic assay
pIC50: −log10 of the molar value.

| structure.smiles | pIC50 |
| --- | --- |
| COc1ncc(N2CCOc3ccc(O[C@H]4CCN(C(=O)C5CCS(=O)(=O)CC5)C4)cc32)cc1F | 6.08 |
| COc1ncc(N2CCOc3ccc(O[C@H]4CCN(C(=O)c5cncn5C)C4)cc32)cc1C | 6.63 |
| CCC(=O)N1CC[C@H](Oc2ccc3c(c2)N(c2cncc(S(=O)(=O)N(C)OC)c2)CCO3)C1 | 6.59 |
| CCC(=O)N1CC[C@@H](Oc2ccc3c(c2)N(c2ccc(OC)nc2)CCO3)C1 | 5.47 |
| CCC(=O)N1CC[C@H](Oc2ccc3c(c2)N(c2cncc(C(F)(F)F)c2)CCO3)C1 | 6.46 |
| CN(C)S(=O)(=O)c1cncc(N2CCOc3ccc(O[C@H]4CCN(C(=O)C5CCOCC5)C4)cc32)c1 | 7.33 |
| COc1ncc(N2CCOc3cnc(O[C@H]4CCN(C(=O)C5CCS(=O)(=O)CC5)C4)cc32)cc1C(F)(F)F | 6.47 |
